The reported measurements were obtained from patent US11400056B2.

# Test method notes: Evaluation of gallstone dissolution, cholesterol stone
# Parameters: species or system human
# Condition description: 0.5 g gallstone + 0.5 ml agent (1 g compound in 1 ml DMSO), 37° C., 4 hours; (weight after dissolution)/(weight before dissolution)×100
Dissolution ability (%) Cholesterol stone reference

Known Dissolution ability (%) Cholesterol stone results, listed for orientation:
compound="COC(=O)c1cccc(C)c1 [Example 2, methyl 3-methylbenzoate]" reported_result=10.00%
compound="COc1cccc(C)n1 [Example 1, 2-methoxy-6-methylpyridine]" reported_result=14.16%
compound="CCOC(=O)CC [Comparative Example 2, ethyl propionate, reference compound]" reported_result=48.66%

Query: # get_value(readout='Dissolution ability (%) Cholesterol stone', item= CC(=O)C1CC1 [Example 3, 1-cyclopropylethanone] )
Reply: 28.57%

Query: Next record, please: COC(C)(C)C [Comparative Example 1, Methyl tert-butyl ether, reference compound]
Reply: 24.07%
